biological target: Human plasmin (Homo sapiens); construct: Human plasmin is purchased from Boehringer Mannheim, Indianapolis, Ind; purchased Boehringer Mannheim, Indianapolis, Ind; experiment: Serine protease inhibition, plasmin (chromogenic substrate), Kass; format: biochemical; conditions: substrate H-D-Val-Leu-Lys-p-nitroanilide
Sequence (P00747 581-810 limits assumed): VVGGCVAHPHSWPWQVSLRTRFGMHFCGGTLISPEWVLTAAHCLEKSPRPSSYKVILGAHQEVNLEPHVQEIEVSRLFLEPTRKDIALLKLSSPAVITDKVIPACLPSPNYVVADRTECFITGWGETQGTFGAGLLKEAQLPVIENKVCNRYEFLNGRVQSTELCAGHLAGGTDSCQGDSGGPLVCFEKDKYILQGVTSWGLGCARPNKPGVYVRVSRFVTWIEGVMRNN
Sequence (P00747 97-580 partner limits assumed): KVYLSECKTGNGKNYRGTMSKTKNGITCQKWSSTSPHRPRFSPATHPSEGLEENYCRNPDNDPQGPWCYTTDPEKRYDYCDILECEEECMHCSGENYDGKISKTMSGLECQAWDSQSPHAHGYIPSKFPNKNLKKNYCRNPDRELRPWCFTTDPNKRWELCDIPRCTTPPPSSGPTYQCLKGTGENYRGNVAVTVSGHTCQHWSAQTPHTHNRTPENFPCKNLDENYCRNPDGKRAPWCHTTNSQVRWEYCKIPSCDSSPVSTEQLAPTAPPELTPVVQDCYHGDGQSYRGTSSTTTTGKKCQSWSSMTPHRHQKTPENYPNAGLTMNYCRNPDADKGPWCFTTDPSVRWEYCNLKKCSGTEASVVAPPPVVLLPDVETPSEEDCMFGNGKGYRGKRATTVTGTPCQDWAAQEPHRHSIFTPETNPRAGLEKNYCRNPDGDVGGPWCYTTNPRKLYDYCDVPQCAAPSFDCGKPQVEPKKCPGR
Can you tell me Enzyme Kass, Plasmin for the items I'm about to list?

[
  {
    "Compound": "CC(=O)N[C@H](Cc1ccccc1)C(=O)N1CCC[C@H]1C(=O)N[C@H](C=O)CCCN=C(N)N.Cl [Example 23, Ac-D-Phe-Pro-Arg-H.HCl]",
    "Enzyme Kass, Plasmin": "0.28 L/mol × 10^6"
  },
  {
    "Compound": "COCC(=O)N[C@H](Cc1ccccc1)C(=O)N1CCC[C@H]1C(=O)N[C@H](C=O)CCCNC(=N)N.Cl [Example 24, CH3 OCH2 CO-D-Phe-Pro-Arg-H.HCl]",
    "Enzyme Kass, Plasmin": "3.8 L/mol × 10^6"
  },
  {
    "Compound": "Cl.N=C(N)NCCC[C@@H](C=O)NC(=O)[C@@H]1CCCN1C(=O)[C@@H](Cc1ccccc1)NC(=O)C1CCCCC1 [Example 27, cyclohexyl-CO-D-Phe-Pro-Arg-H.HCl]",
    "Enzyme Kass, Plasmin": "0.24 L/mol × 10^6"
  },
  {
    "Compound": "Cl.N=C(N)NCCC[C@@H](C=O)NC(=O)[C@@H]1CCCN1C(=O)[C@@H](Cc1ccccc1)NS(=O)(=O)c1ccc(F)cc1F [Example 14, 2,4-F-PhSO2 -D-Phe-Pro-Arg-H-HCl]",
    "Enzyme Kass, Plasmin": "25 L/mol × 10^6"
  }
]

Could I get Enzyme Kass, Plasmin for every one of these entries?
1. CN(C)S(=O)(=O)N[C@H](Cc1ccccc1)C(=O)N1CCC[C@H]1C(=O)N[C@H](C=O)CCCNC(=N)N.Cl [Example 12, Me2 NSO2 -D-Phe-Pro-Arg-H.HCl]
2. Cl.NC(N)=NCCCC(C=O)NC(=O)C1CCCN1C(=O)C(CC1CCCCC1)NC(=O)c1ccc2ccccc2n1 (stereo not drawn) [Example 6]

*A*
21 L/mol × 10^6
2.5 L/mol × 10^6

* * *

Can you tell me Enzyme Kass, Human Thrombin for the items I'm about to list?
biological target: human thrombin (Homo sapiens, UniProt P00734); construct: purified human thrombin Enzyme Research Laboratories, South Bend, Ind; purchased Enzyme Research Laboratories, South Bend, Ind; experiment: Inhibition of amidase activity of thrombin (chromogenic substrate), Kass; type: biochemical; conditions: substrate N-benzoyl-Phe-Val-Arg-p-nitroanilide, pH 7.4
Non-standard residues stand in square brackets, D forms with d. Residues, ends and D or L forms follow the SMILES beside them. dNMeCha = CN[C@H](CC1CCCCC1)C(=O)O

Answered examples (2):
[
  {
    "Compound": "Cl.N=C(N)NCCC[C@@H](C=O)NC(=O)[C@@H]1CCCN1C(=O)[C@@H](Cc1ccccc1)NS(=O)(=O)c1ccc(C(=O)O)cc1 [Example 18, 4-(HO2 C)-C6 H4 SO2 -D-Phe-Pro-Arg-H.HCl]",
    "Enzyme Kass, Human Thrombin": "70 L/mol × 10^6"
  },
  {
    "Compound": "CCS(=O)(=O)N[C@H](Cc1ccccc1)C(=O)N1CCC[C@H]1C(=O)N[C@H](C=O)CCCNC(=N)N.Cl [Example 8, EtSO2 -D-Phe-Pro-Arg-H-HCl]",
    "Enzyme Kass, Human Thrombin": "450 L/mol × 10^6"
  }
]

Could I get Enzyme Kass, Human Thrombin for every one of these entries?
1. Cl.N=C(N)NCCC[C@@H](C=O)NC(=O)[C@@H]1CCCN1C(=O)[C@@H](Cc1ccccc1)NC(=O)C(F)(F)F [Example 25, CF3 CO-D-Phe-Pro-Arg-H.HCl]
2. CN(C)S(=O)(=O)N[C@H](Cc1ccccc1)C(=O)N1CCC[C@H]1C(=O)N[C@H](C=O)CCCNC(=N)N.Cl [Example 12, Me2 NSO2 -D-Phe-Pro-Arg-H.HCl]
3. Cl.N=C(N)NCCC[C@@H](C=O)NC(=O)[C@@H]1CCCN1C(=O)[C@@H](Cc1ccccc1)NS(=O)(=O)c1ccccc1 [Example 13, PhSO2 -D-Phe-Pro-Arg-H.HCl]
4. Cl.NC(N)=NCCCC(C=O)NC(=O)C1CCCN1C(=O)C(Cc1ccccc1)NC(=O)c1ccc2ccccc2n1 (centres unmarked) [Example 2]
5. CCS(=O)(=O)N[C@@H](C(=O)N1CCC[C@H]1C(=O)N[C@H](C=O)CCCNC(=N)N)C1CCCCC1.Cl [Example 22, EtSO2 -D-Chg-Pro-Arg-H.HCl]

*A*
1. 26 L/mol × 10^6
2. 300 L/mol × 10^6
3. 270 L/mol × 10^6
4. 110 L/mol × 10^6
5. 260 L/mol × 10^6

Could I get Enzyme Kass, Human Thrombin for every one of these entries?
1. Cl.N=C(N)NCCC[C@@H](C=O)NC(=O)[C@@H]1CCCN1C(=O)[C@@H](Cc1ccccc1)NS(=O)(=O)c1ccc(F)cc1F [Example 14, 2,4-F-PhSO2 -D-Phe-Pro-Arg-H-HCl]
2. Cl.Cn1c(C(=O)NC(CC2CCCCC2)C(=O)N2CCCC2C(=O)NC(C=O)CCCN=C(N)N)cc2ccccc21 [Example 5, NMI-D-Cha-Pro-Arg-H.HCl]
3. CN[C@H](CC1CCCCC1)C(=O)N1CCC[C@H]1C(=O)N[C@H](C=O)CCCNC(=N)N.Cl [Example 31, Me-D-Cha-Pro-Arg-H.HCl] (H-[dNMeCha]-Pro-Arg-aldehyde)
4. CCCS(=O)(=O)N[C@H](Cc1ccccc1)C(=O)N1CCC[C@H]1C(=O)N[C@H](C=O)CCCNC(=N)N.Cl [Example 9, n-Pr-SO2 -D-Phe-Pro-Arg-H.HCl]

*A*
1: 230 L/mol × 10^6; 2: 320 L/mol × 10^6; 3: 590 L/mol × 10^6; 4: 1,700 L/mol × 10^6

* * *

tested on: Human Plasma; assay: Anticoagulation in human plasma, thrombin time (TT); assay type: biochemical; conditions: concentration required to double the thrombin time
Quantity Kind: 2 × Clotting time, TT
Just the number plus its unit, please.

Could I get 2 × Clotting time, TT for every one of these entries?
1. CCNC(=O)N[C@H](Cc1ccccc1)C(=O)N1CCC[C@H]1C(=O)N[C@H](C=O)CCCN=C(N)N.Cl [Example 32, EtNHCO-D-Phe-Pro-Arg-H.HCl]
2. CS(=O)(=O)N[C@H](Cc1ccccc1)C(=O)N1CCC[C@H]1C(=O)N[C@H](C=O)CCCNC(=N)N.Cl [Example 7, MeSO2 -D-Phe-Pro-Arg-H.HCl]
3. Cl.N=C(N)NCCC[C@@H](C=O)NC(=O)[C@@H]1CCCN1C(=O)[C@@H](Cc1ccccc1)NS(=O)(=O)c1ccccc1 [Example 13, PhSO2 -D-Phe-Pro-Arg-H.HCl]

*A*
1. 63 ng/mL
2. 21 ng/mL
3. 14 ng/mL

* * *

target: factor Xa (Homo sapiens); construct: Human factors X, Xa, IXa, XIa, and xIIa are purchased from Enzyme Research Laboratories; purchased Enzyme Research Laboratories, South Bend, Ind; assay: Serine protease inhibition, factor Xa (chromogenic substrate), Kass; format: biochemical; settings: substrate N-Benzoyl-Ile-Glu-Gly-Arg-p-nitroanilide
Sequence (P00742 235-488 limits assumed): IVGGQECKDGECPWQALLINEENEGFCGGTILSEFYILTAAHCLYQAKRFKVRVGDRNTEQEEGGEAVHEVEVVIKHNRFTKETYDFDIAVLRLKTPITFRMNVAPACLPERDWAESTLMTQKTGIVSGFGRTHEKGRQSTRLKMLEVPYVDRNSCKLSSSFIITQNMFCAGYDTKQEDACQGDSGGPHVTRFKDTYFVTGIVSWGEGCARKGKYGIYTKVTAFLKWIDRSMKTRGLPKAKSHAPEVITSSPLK
Sequence (P00742 41-179 partner limits assumed): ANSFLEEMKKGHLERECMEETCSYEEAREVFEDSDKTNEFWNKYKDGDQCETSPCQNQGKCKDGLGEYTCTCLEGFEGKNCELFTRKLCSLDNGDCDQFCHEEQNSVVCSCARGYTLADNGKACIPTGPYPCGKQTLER
Non-standard residues stand in square brackets, D forms with d. Residues, ends and D or L forms follow the SMILES beside them. dCha = N[C@H](CC1CCCCC1)C(=O)O
Can you tell me Enzyme Kass, Xa for the items I'm about to list?
Answers are plain numbers, in L/mol × 10^6.

[
  {
    "Compound": "CCOC(=O)N[C@H](CC1CCCCC1)C(=O)N1CCC[C@H]1C(=O)N[C@H](C=O)CCCN=C(N)N.Cl [Example 34, EtOCO-D-Cha-Pro-Arg-H.HCl]",
    "Enzyme Kass, Xa [L/mol × 10^6]": 8.1
  },
  {
    "Compound": "Cl.N=C(N)NCCC[C@@H](C=O)NC(=O)[C@@H]1CCCN1C(=O)[C@@H](Cc1ccccc1)NC(=O)Cc1ccccc1 [Example 26, PhCH2 CO-D-Phe-Pro-Arg-H.HCl]",
    "Enzyme Kass, Xa [L/mol × 10^6]": 0.10
  },
  {
    "Compound": "CCCCS(=O)(=O)N[C@H](Cc1ccccc1)C(=O)N1CCC[C@H]1C(=O)N[C@H](C=O)CCCNC(=N)N.Cl [Example 10, n-Bu-SO2 -D-Phe-Pro-Arg-H.HCl]",
    "Enzyme Kass, Xa [L/mol × 10^6]": 8.3
  },
  {
    "Compound": "COCC(=O)N[C@H](Cc1ccccc1)C(=O)N1CCC[C@H]1C(=O)N[C@H](C=O)CCCNC(=N)N.Cl [Example 24, CH3 OCH2 CO-D-Phe-Pro-Arg-H.HCl]",
    "Enzyme Kass, Xa [L/mol × 10^6]": 0.29
  },
  {
    "Compound": "CCS(=O)(=O)N[C@H](Cc1ccccc1)C(=O)N1CCC[C@H]1C(=O)N[C@H](C=O)CCCNC(=N)N.Cl [Example 8, EtSO2 -D-Phe-Pro-Arg-H-HCl]",
    "Enzyme Kass, Xa [L/mol × 10^6]": 2.6
  },
  {
    "Compound": "CS(=O)(=O)N[C@H](Cc1ccccc1)C(=O)N1CCC[C@H]1C(=O)N[C@H](C=O)CCCNC(=N)N.Cl [Example 7, MeSO2 -D-Phe-Pro-Arg-H.HCl]",
    "Enzyme Kass, Xa [L/mol × 10^6]": 2.4
  },
  {
    "Compound": "Cl.NC(N)=NCCCC(C=O)NC(=O)C1CCCN1C(=O)C(CC1CCCCC1)NC(=O)c1ccc2ccccc2n1 (centres unmarked)",
    "Enzyme Kass, Xa [L/mol × 10^6]": 0.83
  },
  {
    "Compound": "CC(=O)N[C@H](CC1CCCCC1)C(=O)N1CCC[C@H]1C(=O)N[C@H](C=O)CCCNC(=N)N.Cl [Example 28, Ac-D-Cha-Pro-Arg-H.HCl] (Ac-[dCha]-Pro-Arg-aldehyde)",
    "Enzyme Kass, Xa [L/mol × 10^6]": 1.1
  },
  {
    "Compound": "Cl.N=C(N)NCCC[C@@H](C=O)NC(=O)[C@@H]1CCCN1C(=O)[C@@H](Cc1ccccc1)NC(=O)c1cccnc1 [Example 3, N-Nicotinoyl-D-Phe-Pro-Arg-H.HCl]",
    "Enzyme Kass, Xa [L/mol × 10^6]": 0.080
  },
  {
    "Compound": "Cl.N=C(N)NCCC[C@@H](C=O)NC(=O)[C@@H]1CCCN1C(=O)[C@@H](Cc1ccccc1)NC(=O)C(F)(F)F [Example 25, CF3 CO-D-Phe-Pro-Arg-H.HCl]",
    "Enzyme Kass, Xa [L/mol × 10^6]": 0.033
  }
]

Quick note, Enzyme Kass, Xa for Cl.N=C(N)NCCC[C@@H](C=O)NC(=O)[C@@H]1CCCN1C(=O)[C@@H](Cc1ccccc1)NC(=O)C1CCCCC1 [Example 27, cyclohexyl-CO-D-Phe-Pro-Arg-H.HCl] landed at 0.064
